biological target: Serine/threonine-protein kinase 3 (Homo sapiens); details: at 1 µM;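 also: each value is the mean inhibition of MST2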
Measure Name: inhibition (%)
Respond with the bare value in %.

input: If you can, please state the reported inhibition value of CC(C)=Cc1cccc2c1/C(=N/Nc1ccc(S(N)(=O)=O)cc1)C(=O)N2 .
output: 82.4

input: If you can, please state the reported inhibition value of [O-][S+]1CCN(Cc2ccc(-c3ccc4ncnc(Nc5ccc(OCc6ccccc6)c(F)c5)c4c3)o2)CC1 .
output: 3.06

input: If you can, please state the reported inhibition value of Cc1ccc(C(=O)NC2CCCCC2)cc1-c1ccc(C(=O)NCC2CC2)cc1 .
output: 4.05

input: If you can, please state the reported inhibition value of COc1ccc2cc(-c3c(-c4ccncc4)nc(-c4ccc([S+](C)[O-])cc4)n3C)ccc2c1 (configuration not stated) .
output: 8.09

input: If you can, please state the reported inhibition value of COc1cc(C=NNc2ncnc3c2cnn3-c2ccccc2)ccc1O .
output: 6.24

input: If you can, please state the reported inhibition value of Nc1ncnc2occ(-c3ccc(NC(=O)Nc4cc(C(F)(F)F)cc(C(F)(F)F)c4)cc3)c12 .
output: 5.55

input: If you can, please state the reported inhibition value of CS(=O)(=O)Nc1ccc(N/C=C2\C(=O)Nc3ccccc32)cc1 .
output: 24.6

input: If you can, please state the reported inhibition value of COc1ccc(-c2ccncc2)cc1C(N)=O .
output: 6.68

input: If you can, please state the reported inhibition value of Cc1nnc(-c2ccc(C)c(-c3ccc(C(=O)Nc4cccc(C#N)c4)cc3)c2)o1 .
output: 6.4

input: If you can, please state the reported inhibition value of CCn1c(-c2nonc2N)nc2cncc(C(=O)N3CC[C@H](N)C3)c21 .
output: 4.87

input: If you can, please state the reported inhibition value of NS(=O)(=O)c1cccc(-c2ccc3c(NC(=O)C4CC4)n[nH]c3c2)c1 .
output: -2.35
